Consider the following compounds; for each one, report its RI.
- Tested on: LoVo
- PROCEDURE TEXT: Resistance index measured as the ratio of IC50 of LoVo/Dx cell line to that of LoVo cell line.
- Type: functional, Homo sapiens
Numbers only.

Recorded RI, per entry:
CN(C)CCn1nc2c3c(c(NCCN)ccc31)C(=O)c1ccncc1-2: 27
CNCCNc1ccc2c3c(nn2CCN(C)C)-c2cnccc2C(=O)c13: 126
CNCCNc1ccc2c3c(nn2CCN)-c2cnccc2C(=O)c13: 49
CCN(CC)CCNc1ccc2c3c(nn2CCN(C)C)-c2cnccc2C(=O)c13: 2.2
CN(C)CCn1nc2c3c(c(NCCN4CCNCC4)ccc31)C(=O)c1ccncc1-2: 21

Okay, here is my list. What is RI for each of these?
1. CN(C)CCn1nc2c3c(c(NCCN4CCOCC4)ccc31)C(=O)c1ccncc1-2
2. NCCn1nc2c3c(c(NCCN(CCO)CCO)ccc31)C(=O)c1ccncc1-2
3. CNCCn1nc2c3c(c(NCCNCCO)ccc31)C(=O)c1ccncc1-2
4. CN(C)CCn1nc2c3c(c(NCCN4CCCCC4)ccc31)C(=O)c1ccncc1-2
5. CN(C)CCn1nc2c3c(c(NCCCN)ccc31)C(=O)c1ccncc1-2
6. CCN(CC)CCNc1ccc2c3c(nn2CCN)-c2cnccc2C(=O)c13

Given back:
[2.7, 2.1, 109, 1.1, 7.6, 30]

###

- Tested on: LoVo
- PROCEDURE TEXT: Resistance index measured as the ratio of IC50 of LoVo/Dx cell line to that of LoVo cell line.
- Format: functional, Homo sapiens
Consider the following compounds; for each one, report its RI.
Give bare numbers.

Recorded RI, per entry:
CN(C)CCNc1ccc2c3c(nn2CCN(C)C)-c2cnccc2C(=O)c13: 2.8
CNCCNc1ccc2c3c(nn2CCNC)-c2cnccc2C(=O)c13: 78
CN(C)CCn1nc2c3c(c(NCCN(C)CCO)ccc31)C(=O)c1ccncc1-2: 31.6
O=C1c2c(O)ccc(O)c2C(=O)c2c(NCCNCCO)ccc(NCCNCCO)c21: 28

// switching to the query compound
Asked: What value of RI has been recorded for this entry: NCCNc1ccc2c3c(nn2CCN)-c2cnccc2C(=O)c13
Given back: 18

###

- System: LoVo
- PROCEDURE TEXT: Resistance index measured as the ratio of IC50 of LoVo/Dx cell line to that of LoVo cell line.
- Type: functional, Homo sapiens
Consider the following molecules; for each one, report its RI.

NCCn1nc2c3c(c(NCCNCCO)ccc31)C(=O)c1ccncc1-2: >61
CN(C)CCn1nc2c3c(c(NCCN(CCO)CCO)ccc31)C(=O)c1ccncc1-2: >47
CNCCNc1ccc2c3c(nn2CCNCCO)-c2cnccc2C(=O)c13: >185
CN(C)CCNCCNc1ccc2c3c(nn2CCN(C)C)-c2cnccc2C(=O)c13: >31

// switching to the query molecule
Asked: What value of RI has been recorded for this entry: CN(C)CCn1nc2c3c(c(NCCn4ccnc4)ccc31)C(=O)c1ccncc1-2
Given back: >91

###

Consider the following compounds; for each one, report its RI.
- Test system: LoVo
- PROCEDURE TEXT: Resistance index measured as the ratio of IC50 of LoVo/Dx cell line to that of LoVo cell line.
- Type: functional, Homo sapiens

CN(C)CCNc1ccc2c3c(nn2CCO)-c2cnccc2C(=O)c13: >5.4
NCCn1nc2c3c(c(NCCN4CCOCC4)ccc31)C(=O)c1ccncc1-2: >57

Okay, here is my list. What is RI for each of these?
1. NCCNc1ccc2c3c(nn2CCNCCO)-c2cnccc2C(=O)c13
2. NCCNc1ccc2c3c(nn2CCO)-c2cnccc2C(=O)c13
3. O=C1c2ccncc2-c2nn(CCNCCO)c3ccc(NCCNCCO)c1c23
4. O=C1c2ccncc2-c2nn(CCNCCO)c3ccc(NCCO)c1c23

Given back:
1. >46
2. >3.5
3. >22
4. >1.9

Data provenance is ChEMBL document CHEMBL1131450.
